# pKd per record follows
# TARGET DESC: recombinant human CD3ε/δ heterodimer (human) (UniProt P07766)
# Sequence (P07766 23-126, stated change not applied, chain 1 of 2): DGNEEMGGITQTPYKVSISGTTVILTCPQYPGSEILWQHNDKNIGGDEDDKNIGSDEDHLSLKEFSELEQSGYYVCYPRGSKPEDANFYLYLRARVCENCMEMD
# Sequence (P04234 22-105, stated change not applied, chain 2 of 2, further chain): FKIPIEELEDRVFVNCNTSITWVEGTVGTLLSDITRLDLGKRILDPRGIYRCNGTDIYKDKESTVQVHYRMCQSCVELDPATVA
# ASSAY EXPLANATION: BLI (Octet), antigen on anti-Penta His sensor, antibody 50 nM
pKd: −log10 of the molar value.

# BINDER, pKd
rows = [
    ("A15 (antibody, human IgG1, lambda, L234A L235A, V domains shown) VH: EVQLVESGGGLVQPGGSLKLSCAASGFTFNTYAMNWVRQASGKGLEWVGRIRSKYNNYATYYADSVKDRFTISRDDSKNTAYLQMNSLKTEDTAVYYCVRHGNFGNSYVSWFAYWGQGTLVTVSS VL: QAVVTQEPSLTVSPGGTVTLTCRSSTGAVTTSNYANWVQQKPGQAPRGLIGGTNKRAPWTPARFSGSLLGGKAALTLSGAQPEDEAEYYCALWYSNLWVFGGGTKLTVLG", 9.53),
    ("F16 (antibody, human IgG1, lambda, L234A L235A, V domains shown) VH: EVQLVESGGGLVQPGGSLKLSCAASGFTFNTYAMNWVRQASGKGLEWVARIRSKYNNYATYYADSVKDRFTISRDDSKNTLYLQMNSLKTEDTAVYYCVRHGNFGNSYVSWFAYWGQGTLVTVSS VL: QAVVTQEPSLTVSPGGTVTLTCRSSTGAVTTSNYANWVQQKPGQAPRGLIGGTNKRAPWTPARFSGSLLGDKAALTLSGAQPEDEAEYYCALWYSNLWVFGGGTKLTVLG", 9.07),
    ("A16 (antibody, human IgG1, lambda, L234A L235A, V domains shown) VH: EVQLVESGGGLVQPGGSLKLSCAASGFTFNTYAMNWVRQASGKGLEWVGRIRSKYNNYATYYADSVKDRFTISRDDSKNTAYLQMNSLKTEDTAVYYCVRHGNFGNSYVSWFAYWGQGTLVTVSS VL: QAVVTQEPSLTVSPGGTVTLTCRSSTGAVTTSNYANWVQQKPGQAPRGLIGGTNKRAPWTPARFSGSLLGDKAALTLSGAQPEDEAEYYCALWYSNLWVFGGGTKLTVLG", 9.53),
    ("B08 (antibody, human IgG1, lambda, L234A L235A, V domains shown) VH: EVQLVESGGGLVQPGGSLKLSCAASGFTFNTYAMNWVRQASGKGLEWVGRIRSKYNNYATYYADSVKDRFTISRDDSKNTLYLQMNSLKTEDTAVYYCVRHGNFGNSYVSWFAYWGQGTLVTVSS VL: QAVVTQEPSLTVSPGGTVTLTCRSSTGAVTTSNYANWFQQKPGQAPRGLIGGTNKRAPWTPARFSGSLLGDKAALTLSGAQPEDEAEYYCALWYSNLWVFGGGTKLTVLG", 7.56),
    ("D16 (antibody, human IgG1, lambda, L234A L235A, V domains shown) VH: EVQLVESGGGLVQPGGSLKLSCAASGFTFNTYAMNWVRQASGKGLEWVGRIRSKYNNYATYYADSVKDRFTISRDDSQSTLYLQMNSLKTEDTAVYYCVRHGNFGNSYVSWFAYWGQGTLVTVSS VL: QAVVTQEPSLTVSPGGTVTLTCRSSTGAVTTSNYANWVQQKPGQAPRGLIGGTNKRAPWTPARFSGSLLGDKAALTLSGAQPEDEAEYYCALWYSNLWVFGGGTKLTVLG", 9.35),
]

// provenance: patent US20200317779A1
